TARGET_UNDER_TEST: Prostaglandin E synthase (Homo sapiens) (UniProt O14684)
Sequence (whole entry): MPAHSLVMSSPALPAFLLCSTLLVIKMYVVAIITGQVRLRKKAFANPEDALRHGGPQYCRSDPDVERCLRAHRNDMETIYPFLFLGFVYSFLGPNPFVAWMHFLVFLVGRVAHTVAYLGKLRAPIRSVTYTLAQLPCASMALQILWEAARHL
ASSAY_NOTES: Inhibition of recombinant human mPGES-1 expressed in CHO cells assessed as reduction in PGE2 formation at 10 uM using PGH2 a substrate preincubated for 10 mins followed by substrate addition measured after 1 min relative to control
Type: cell-based
# label = class 1 if inhibition >= 80% else class 0

Prompt line: Answer whether inhibition of "CC1(C)Oc2cc(C(=O)Nc3ccc(Cl)c(F)c3)ccc2-c2[nH]c(-c3c(F)cccc3Cl)nc21" is greater than or equal to 80%.
Response line: class 1

Prompt line: Answer whether inhibition of "Cc1csc(NC(=O)c2ccc3c(c2)OC(C)(C)c2nc(-c4c(F)cccc4Cl)[nH]c2-3)n1" is greater than or equal to 80%.
Response line: class 0

Prompt line: Answer whether inhibition of "CC1(C)Oc2nc(C#Cc3c(F)cccc3C(F)(F)F)ccc2-c2nc(-c3c(F)cccc3Cl)[nH]c21" is greater than or equal to 80%.
Response line: class 0

Prompt line: Answer whether inhibition of "CC1(C)Oc2cc(Br)ccc2-c2[nH]c(-c3c(Br)cccc3Br)nc21" is greater than or equal to 80%.
Response line: class 1

Prompt line: Answer whether inhibition of "CC1(C)Oc2cc(-c3cccc(OC(F)(F)F)c3)ccc2-c2[nH]c(-c3c(F)cccc3Cl)nc21" is greater than or equal to 80%.
Response line: class 1
